For each record, check the reported log10 Henry constant (atm·m³/mol): if it is below -4 write Met, else write Not met.

Some solved cases for reference:
Exercise: Is the reported log10 Henry constant (atm·m³/mol) for `Cc1ccc(Br)cc1` strictly below -4?
Solution: Not met

Exercise: Hello, I'm reviewing records and need to know if log10 Henry constant (atm·m³/mol) of `CC(=O)OO[N+](=O)[O-]` is below -4. Could you check?
Solution: Not met

Exercise: API: query returns whether the compound falls strictly under -4 in log10 Henry constant (atm·m³/mol). Query: `Cc1ccc2ccccc2c1`
Solution: Not met

Exercise: Lab note: confirm whether the reported log10 Henry constant (atm·m³/mol) for this compound is below -4, equality not counting. compound: `Clc1ccc(-c2c(Cl)cccc2Cl)cc1`
Solution: Not met

Exercise: Take the compound `CCc1cccc(CC)c1N(COC)C(=O)CCl` and say whether its log10 Henry constant (atm·m³/mol) is less than -4.
Solution: Met

Continuing:
Exercise: API: query returns whether the compound falls strictly under -4 in log10 Henry constant (atm·m³/mol). Query: `Cc1ccc([N+](=O)[O-])c(O)c1`
Solution: Met

Exercise: # TODO verify log10 Henry constant (atm·m³/mol) < -4 strictly for this compound: `O=Cc1cccnc1`
Solution: Met

---

recordedEndpoint: melting point (°C)
The figure you give is taken to be in °C; do not add the unit.

Please review the following examples before continuing.
# compound `NCCc1cnc[nH]1` ; its melting point = 86

Query `CCN(CC)c1ccc(Br)cc1` yields melting point of 38

melting point recorded for this compound, `O=C=S` , is -139

Next:
`COC1=CC(=O)C=C(OC)C1=O` has a reported melting point of 256

Looking up `CCOc1ccc(NC(C)=O)cc1` , I see its melting point listed as 138

melting point reading for `CC(C)CC=O` : -51

The reported melting point of the compound `CCCCCO` was -78.9

melting point in this record for `NNc1cccc2ccccc12` : 117

Entry `Oc1ccc(Cl)c(Cl)c1` , melting point reported as 68

---

recordedEndpoint: melting point (°C)
Give just the numeric value; °C need not be written.

Illustrative cases are given below, each with its answer.
What the record says about `NC(=S)c1c(Cl)cccc1Cl` : melting point is 152

Lookup result for `CNC(=O)ON=C(C)SC` ; measured melting point: 78

compound `Cc1cc(O)cc(O)c1` , melting point observed: 108

Sure, the documented melting point for `O=Nc1ccc(O)c(N=O)c1O` is 168

Lab book: melting point of `FC(F)(F)c1nc(C(F)(F)F)nc(C(F)(F)F)n1` noted as -24.8

---
Measured melting point, `CSB(C)C` : -84

Noted for `CC(C)=CCC[C@@H](C)[C@H]1CC[C@H]2[C@@H]3CC=C4C[C@@H](O)CC[C@]4(C)[C@H]3CC[C@]12C` : its melting point reads 122

The value of melting point measured for the compound `Cc1ccc(S(=O)(=O)C2(C(=O)OC(C)C)CC2)cc1` turned out to be 65.5

Measured melting point, `O=C(Cl)CCC(=O)Cl` : 20

Form: compound = `Cc1cccc(C)c1N` ; melting point = 11.2

The compound identified as `C[C@]12C=CC(=O)C=C1[C@@H](F)C[C@@H]1[C@@H]2[C@@H](O)C[C@@]2(C)[C@H]1CC[C@]2(O)C(=O)CO` registered its melting point at 210

Query `CCCCCCCC(=O)OCCC` yields melting point of -46.2

The measured values listed here are drawn from the OPERA property sets (Mansouri et al. 2018).
